Listed next: entries and their corresponding IC90.
System: M. tuberculosis H37Rv growth inhibition with meropenem
Experiment: dose response, H37Rv, with and without meropenem (AID 434987);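 note: growth over 7 days at 37 °C before Alamar Blue read on day 9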
Conditions: measured here: IC90 with meropenem

Previously resolved entries follow.
# compound, result value
data = [
    ("c1ccc(-c2n[nH]c3c2CCC3)cc1", "46.3 µM"),
    ("Cc1nc(Nc2ccc(Cl)cc2Cl)sc1C(=O)Nc1ccccc1", "> 100 µM"),
    ("Cc1cc(Br)cc2c(C(=O)NCC3CCCO3)cc(-c3ccccc3)nc12 (stereo unspecified)", "> 100 µM"),
    ("Nc1nc(Sc2ncccc2[N+](=O)[O-])n[nH]1", "77.1 µM"),
    ("O=C(CCS(=O)(=O)c1ccccc1)N(CCCN1CCOCC1)c1nc2c(F)cccc2s1", "> 25 µM"),
    ("CC1CN(C(=S)NC(=O)c2cccc([N+](=O)[O-])c2)CC(C)O1 (stereo unspecified)", "> 100 µM"),
    ("CSc1ccc(/C=C/C(=O)NC23CC4CC(CC(C4)C2)C3)cc1", "16.1 µM"),
    ("CSc1nnc(-c2ccc(NC(N)=S)cc2)o1", "> 100 µM"),
]

Looking for the measured IC90 of COCCCNc1nc(SCc2ccccc2)nc2sc3c(c12)CCC3 , can you help?
> 100 µM

Looking for the measured IC90 of COC(=O)C1=C(C)NC(=O)/C1=C\c1cc(C)n(-c2c(C)cccc2C)c1C , can you help?
99.8 µM

Looking for the measured IC90 of NC(N)=NS(=O)(=O)c1ccc(N)cc1 , can you help?
> 100 µM

###

System: M. tuberculosis H37Rv growth inhibition with meropenem
Experiment: dose response, H37Rv, with and without meropenem (AID 434987);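 note: growth over 7 days at 37 °C before Alamar Blue read on day 9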
Details: measured here: IC90 with meropenem
Listed next: entries and their corresponding IC90.

# molecule, IC90
records = [
    ("COc1cc(NC(=O)c2ccccc2)c(OC)cc1NC(=O)CN1CCOCC1", "69.2 µM"),
    ("COc1ccc(NC(=O)C(Cc2ccccc2)n2cccc2)c(OC)c1 (stereo unspecified)", "> 100 µM"),
    ("O=C(NCc1cccs1)c1cc(-c2ccccc2)nc2ccccc12", "> 100 µM"),
    ("O=C(OCC(=O)c1ccc[nH]1)C1=COCCO1", "> 100 µM"),
    ("CCOc1cc(/C=N\\Nc2ccc([N+](=O)[O-])cc2)ccc1OCC(=O)Nc1ccc(C)c(C)c1", "> 12.5 µM"),
]

Looking for the measured IC90 of O=C(c1ccc(-c2ccc(Cl)cc2)o1)N1CCN(S(=O)(=O)c2cccs2)CC1 , can you help?
99.6 µM

Looking for the measured IC90 of CCOc1cc(/C=N/Nc2nc(-c3cccs3)c(NC(C)=O)s2)ccc1O , can you help?
> 100 µM

Looking for the measured IC90 of COC(=O)N1C(=O)[C@](Cc2ccccc2)(c2ccccc2)N1C(=O)OC , can you help?
> 100 µM

Looking for the measured IC90 of O=C(CCN1c2ccccc2Sc2ccccc21)Oc1ccccc1 , can you help?
> 100 µM

Looking for the measured IC90 of Cn1nnnc1Sc1ncnc2scc(-c3cccc(F)c3)c12 , can you help?
> 100 µM

Looking for the measured IC90 of Cc1cccc(Cl)c1NC(=S)NN , can you help?
55.1 µM
